IC50: recorded values
Biological target: human FAP (Homo sapiens)
Construct: the human secretion signal was replaced with the HoneyBee mellitin secretion signal; HoneyBee mellitin secretion signal (replaces the native signal-anchor) (N); C-terminal tag of the BaculoDirect C-term kit (C); purified from the supernatant
Sequence (Q12884 26-760 limits assumed): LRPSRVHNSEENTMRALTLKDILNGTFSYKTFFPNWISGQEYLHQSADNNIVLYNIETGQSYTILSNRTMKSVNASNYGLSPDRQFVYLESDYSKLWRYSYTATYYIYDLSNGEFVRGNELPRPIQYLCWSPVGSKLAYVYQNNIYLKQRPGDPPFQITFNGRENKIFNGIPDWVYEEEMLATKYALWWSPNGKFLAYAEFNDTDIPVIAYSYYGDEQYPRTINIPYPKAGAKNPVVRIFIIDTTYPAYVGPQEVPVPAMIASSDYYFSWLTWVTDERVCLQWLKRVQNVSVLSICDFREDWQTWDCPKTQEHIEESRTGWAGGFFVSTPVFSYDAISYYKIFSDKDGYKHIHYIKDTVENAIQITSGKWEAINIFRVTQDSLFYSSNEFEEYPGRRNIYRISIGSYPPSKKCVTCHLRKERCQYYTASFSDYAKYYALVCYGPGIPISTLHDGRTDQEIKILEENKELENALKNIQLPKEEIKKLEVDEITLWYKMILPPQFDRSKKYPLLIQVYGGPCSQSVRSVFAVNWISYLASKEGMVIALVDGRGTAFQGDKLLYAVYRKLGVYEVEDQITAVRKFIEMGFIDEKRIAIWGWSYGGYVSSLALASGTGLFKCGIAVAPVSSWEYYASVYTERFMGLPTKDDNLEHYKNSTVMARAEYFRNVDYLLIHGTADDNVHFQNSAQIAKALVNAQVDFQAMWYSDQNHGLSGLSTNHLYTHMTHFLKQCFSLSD
Assay: FAP inhibition assay (IC50, Z-Gly-Pro-AMC substrate)
Conditions: Z-Gly-Pro-AMC 50 μM, pH 8, 15 min pre-incubation at 37 °C
Your answer should be a plain number; it is taken to be in nM.

molecule	IC50, nM
N#C[C@@H]1CC(F)(F)CN1C(=O)CNC(=O)c1ccnc2ccc(OCCCCNc3c(NCCNC(=O)CN4CCN(CC(=O)O)CCN(CC(=O)O)CCN(CC(=O)O)CC4)c(=O)c3=O)cc12 [DOTA.SA.FAPi]	0.9

*Q* Could you please provide reported IC50 for N#C[C@@H]1CC(F)(F)CN1C(=O)CNC(=O)c1ccnc2ccc(OCCCCNc3c(NCCNC(=O)CN4CCN(CC(=O)[O-])CCN(CC(=O)[O-])CCN(CC(=O)[O-])CC4)c(=O)c3=O)cc12.[Ga+3] [[^natGa]Ga-DOTA.SA.FAPi] ? Thanks!
*A* 1.4

*Q* Give IC50 for the following molecule: CN(CC(=O)O)C1(CCCCC(=O)NCCNc2c(NCCCCOc3ccc4nccc(C(=O)NCC(=O)N5CC(F)(F)C[C@H]5C#N)c4c3)c(=O)c2=O)CN(CC(=O)O)CCN(CC(=O)O)C1 [DATA^5m.SA.FAPi]
*A* 0.8

*Q* Specify measured IC50 for CN(CC(=O)[O-])C1(CCCCC(=O)NCCNc2c(NCCCCOc3ccc4nccc(C(=O)NCC(=O)N5CC(F)(F)C[C@H]5C#N)c4c3)c(=O)c2=O)CN(CC(=O)[O-])CCN(CC(=O)[O-])C1.[Ga+3] [[^natGa]Ga-DATA^5m.SA.FAPi] .
*A* 0.7

###

Target: Human recombinant PREP (Homo sapiens)
Sequence (P48147 whole entry): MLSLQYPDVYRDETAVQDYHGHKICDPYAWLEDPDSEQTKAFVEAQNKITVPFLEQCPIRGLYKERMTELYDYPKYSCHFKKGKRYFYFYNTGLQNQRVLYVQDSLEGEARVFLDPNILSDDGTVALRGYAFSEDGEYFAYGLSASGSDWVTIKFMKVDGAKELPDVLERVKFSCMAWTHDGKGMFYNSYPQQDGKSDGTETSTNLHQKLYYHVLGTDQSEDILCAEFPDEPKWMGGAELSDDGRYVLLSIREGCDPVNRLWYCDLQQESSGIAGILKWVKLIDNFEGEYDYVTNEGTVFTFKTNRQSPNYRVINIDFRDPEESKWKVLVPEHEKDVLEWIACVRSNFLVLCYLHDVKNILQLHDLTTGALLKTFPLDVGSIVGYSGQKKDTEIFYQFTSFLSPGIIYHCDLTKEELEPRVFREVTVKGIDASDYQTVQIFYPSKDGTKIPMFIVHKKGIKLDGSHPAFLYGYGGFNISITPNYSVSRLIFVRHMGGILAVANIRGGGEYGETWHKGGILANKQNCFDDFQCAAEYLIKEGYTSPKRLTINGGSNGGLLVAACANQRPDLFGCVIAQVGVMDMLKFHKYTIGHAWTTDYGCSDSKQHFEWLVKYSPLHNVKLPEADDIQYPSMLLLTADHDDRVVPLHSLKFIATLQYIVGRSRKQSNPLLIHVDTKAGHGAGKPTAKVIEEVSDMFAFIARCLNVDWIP
Assay: PREP inhibition assay (IC50, N-succinyl-Gly-Pro-AMC substrate)
Type: biochemical
Conditions: N-succinyl-Gly-Pro-AMC 250 μM, pH 7.4, 15 min pre-incubation at 37 °C
measured.parameter: IC50 (µM)
Write the answer as a number in µM, unit excluded.

Consider the following illustrative entries.
compound	IC50 (µM)
N#C[C@@H]1CC(F)(F)CN1C(=O)CNC(=O)c1ccnc2ccc(OCCCCNc3c(NCCNC(=O)CN4CCN(CC(=O)[O-])CCN(CC(=O)[O-])CCN(CC(=O)[O-])CC4)c(=O)c3=O)cc12.[Ga+3] [[^natGa]Ga-DOTA.SA.FAPi]	8.7
N#C[C@@H]1CC(F)(F)CN1C(=O)CNC(=O)c1ccnc2ccc(OCCCCNc3c(NCCNC(=O)CN4CCN(CC(=O)O)CCN(CC(=O)O)CCN(CC(=O)O)CC4)c(=O)c3=O)cc12	5.4
CN(CC(=O)O)C1(CCCCC(=O)NCCNc2c(NCCCCOc3ccc4nccc(C(=O)NCC(=O)N5CC(F)(F)C[C@H]5C#N)c4c3)c(=O)c2=O)CN(CC(=O)O)CCN(CC(=O)O)C1	1.7

Now look at this entry.
*Q* Give me measured IC50, please, for this compound: CN(CC(=O)[O-])C1(CCCCC(=O)NCCNc2c(NCCCCOc3ccc4nccc(C(=O)NCC(=O)N5CC(F)(F)C[C@H]5C#N)c4c3)c(=O)c2=O)CN(CC(=O)[O-])CCN(CC(=O)[O-])C1.[Ga+3] [[^natGa]Ga-DATA^5m.SA.FAPi]
*A* 4.7
